# measurement.target: human NMB receptor (BB1) (Homo sapiens, UniProt P28336)
# Construct: expressed in transfected cells; membranes prepared from the cells
# Sequence (P28336 whole entry): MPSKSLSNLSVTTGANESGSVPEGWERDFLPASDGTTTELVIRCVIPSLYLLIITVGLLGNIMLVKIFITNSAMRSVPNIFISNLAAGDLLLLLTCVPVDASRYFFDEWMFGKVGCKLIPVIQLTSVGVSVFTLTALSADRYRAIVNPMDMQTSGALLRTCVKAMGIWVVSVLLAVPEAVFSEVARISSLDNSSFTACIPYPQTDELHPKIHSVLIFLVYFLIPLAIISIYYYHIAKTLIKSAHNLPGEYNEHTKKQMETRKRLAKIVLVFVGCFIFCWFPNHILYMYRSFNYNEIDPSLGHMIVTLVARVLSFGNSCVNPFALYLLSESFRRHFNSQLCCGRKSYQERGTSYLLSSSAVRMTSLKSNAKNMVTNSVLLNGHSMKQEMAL
# test.details: BB1 binding assay ([125I][Tyr4]bombesin displacement, CHO-K1 membranes)
# experimental.conditions: Table 1, human NMB receptor binding affinity; Ki from IC50 by Cheng-Prusoff; read-out: NMB Ki
metric: Ki (nM)

See these solved cases before continuing.
Cc1cccc(N[C@@](C)(Cc2c[nH]c3ccccc23)C(=O)NCC2(c3ccccn3)CCCCC2)c1    653
C[C@@](Cc1c[nH]c2ccccc12)(Nc1cncnc1)C(=O)NCC1(c2ccccn2)CCCCC1    3160
CCc1coc(N[C@@](C)(Cc2c[nH]c3ccccc23)C(=O)NCC2(c3ccc(OC)cn3)CCCCC2)n1    213
COc1ccc(C2(CNC(=O)[C@](C)(Cc3c[nH]c4ccccc34)Nc3nc(-c4ccc([N+](=O)[O-])cc4)cs3)CCCCC2)nc1    15
C[C@@](Cc1c[nH]c2ccccc12)(Nc1nc2ccccc2o1)C(=O)NCC1(c2ccccn2)CCCCC1    2080

(P) C[C@@](Cc1c[nH]c2ccccc12)(Nc1cncc2ccccc12)C(=O)NCC1(c2ccccn2)CCCCC1
(Q) C[C@@](Cc1c[nH]c2ccccc12)(NCc1cc2ccccc2o1)C(=O)NCC1(c2ccccn2)CCCCC1
(R) C[C@@](Cc1c[nH]c2ccccc12)(NCCc1ccccc1)C(=O)NCC1(c2ccccn2)CCCCC1
Lookup: Falling order of Ki, please. Provide your answer as the labels ordered per the instruction.
Found: Q, P, R

(A) C[C@@](Cc1c[nH]c2ccccc12)(Nc1ccccc1-c1ccccc1)C(=O)NCC1(c2ccccn2)CCCCC1
(B) COc1ccc(C2(CNC(=O)[C@](C)(Cc3ccccc3)Nc3nc(-c4ccc([N+](=O)[O-])cc4)co3)CCCCC2)nc1
Lookup: Lower Ki: A or B ? The response must carry the label of the picked entry.
Found: B

* * *

Measured IC50 values are reported for all entries that follow.
# measurement.target: human GRP receptor (BB2) (Homo sapiens, UniProt P30550)
# Construct: expressed in transfected cells; membranes prepared from the cells
# Sequence (P30550 whole entry): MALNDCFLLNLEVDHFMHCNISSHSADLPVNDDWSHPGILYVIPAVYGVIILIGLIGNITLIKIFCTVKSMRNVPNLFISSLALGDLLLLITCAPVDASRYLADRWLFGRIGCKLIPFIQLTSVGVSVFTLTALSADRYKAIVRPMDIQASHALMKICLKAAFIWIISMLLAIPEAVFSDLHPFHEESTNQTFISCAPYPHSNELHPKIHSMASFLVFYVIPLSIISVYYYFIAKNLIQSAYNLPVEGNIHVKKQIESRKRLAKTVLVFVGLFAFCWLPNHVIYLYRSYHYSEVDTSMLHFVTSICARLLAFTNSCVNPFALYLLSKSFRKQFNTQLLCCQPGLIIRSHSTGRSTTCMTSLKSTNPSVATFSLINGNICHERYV
# test.details: BB2 binding assay ([125I][Tyr4]bombesin displacement, CHO-K1 membranes)
# experimental.conditions: second 'TABLE 4', N-terminal urethane derivatives of Intermediate III-7

C[C@@](Cc1c[nH]c2ccccc12)(NC(=O)OCc1ccccc1F)C(=O)NCC1(c2ccccn2)CCCCC1    > 10 µM
C[C@@](Cc1c[nH]c2ccccc12)(NC(=O)OCc1cccc([N+](=O)[O-])c1)C(=O)NCC1(c2ccccn2)CCCCC1    0.612 µM

Lookup: # input compound: C[C@@](Cc1c[nH]c2ccccc12)(NC(=O)OC1Cc2ccccc2C1)C(=O)NCC1(c2ccccn2)CCCCC1 ; wanted: its IC50
Found: > 10 µM

Lookup: # input compound: C[C@@](Cc1c[nH]c2ccccc12)(NC(=O)OCc1ccc(C(F)(F)F)cc1)C(=O)NCC1(c2ccccn2)CCCCC1 ; wanted: its IC50
Found: > 10 µM

Lookup: # input compound: C[C@@](Cc1c[nH]c2ccccc12)(NC(=O)OCc1ccc(Cl)cc1)C(=O)NCC1(c2ccccn2)CCCCC1 ; wanted: its IC50
Found: > 10 µM

Lookup: # input compound: COc1ccccc1COC(=O)N[C@@](C)(Cc1c[nH]c2ccccc12)C(=O)NCC1(c2ccccn2)CCCCC1 ; wanted: its IC50
Found: > 10 µM

Lookup: # input compound: C[C@@](Cc1c[nH]c2ccccc12)(NC(=O)OCc1ccc([N+](=O)[O-])cc1)C(=O)NCC1(c2ccccn2)CCCCC1 ; wanted: its IC50
Found: 0.463 µM

* * *

# measurement.target: human NMB receptor (BB1) (Homo sapiens, UniProt P28336)
# Construct: expressed in transfected cells; membranes prepared from the cells
# test.details: BB1 binding assay ([125I][Tyr4]bombesin displacement, CHO-K1 membranes)
# experimental.conditions: second 'TABLE 4', N-terminal urethane derivatives of Intermediate III-7
pIC50: −log10 of the molar value.
metric: pIC50

(A) C[C@@](Cc1c[nH]c2ccccc12)(NC(=O)OCc1ccccc1F)C(=O)NCC1(c2ccccn2)CCCCC1
(B) C[C@@](Cc1c[nH]c2ccccc12)(NC(=O)OCc1ccc(Cl)cc1Cl)C(=O)NCC1(c2ccccn2)CCCCC1
Lookup: Lower pIC50: A or B ? The response must carry the label of the picked entry.
Found: A
(A: 6.03, B: 6.35)

(P) Cc1ccccc1COC(=O)N[C@@](C)(Cc1c[nH]c2ccccc12)C(=O)NCC1(c2ccccn2)CCCCC1
(Q) C[C@@](Cc1c[nH]c2ccccc12)(NC(=O)OCc1cccc([N+](=O)[O-])c1)C(=O)NCC1(c2ccccn2)CCCCC1
(R) C[C@@](Cc1c[nH]c2ccccc12)(NC(=O)OCc1cccc(Cl)c1Cl)C(=O)NCC1(c2ccccn2)CCCCC1
Lookup: Ascending sort, pIC50. Provide your answer as the labels ordered per the instruction.
Found: P, R, Q
(P: 6.12, R: 6.82, Q: 7.77)

(I) Cc1ccc(COC(=O)N[C@@](C)(Cc2c[nH]c3ccccc23)C(=O)NCC2(c3ccccn3)CCCCC2)cc1
(II) C[C@@](Cc1c[nH]c2ccccc12)(NC(=O)OCc1ccc2ncccc2c1)C(=O)NCC1(c2ccccn2)CCCCC1
Lookup: Lower pIC50: I or II ? The response must carry the label of the picked entry.
Found: I

* * *

# measurement.target: human GRP receptor (BB2) (Homo sapiens, UniProt P30550)
# Construct: expressed in transfected cells; membranes prepared from the cells
# test.details: BB2 binding assay ([125I][Tyr4]bombesin displacement, CHO-K1 membranes)
# experimental.conditions: Table 3, N-acyl derivatives of Intermediate III-7
pIC50: −log10 of the molar value.
Measured pIC50 values are reported for all entries that follow.

See these solved cases before continuing.
COc1ccc(CC(=O)N[C@@](C)(Cc2c[nH]c3ccccc23)C(=O)NCC2(c3ccccn3)CCCCC2)cc1    < 5.00
C[C@@](Cc1c[nH]c2ccccc12)(NC(=O)c1ccccc1)C(=O)NCC1(c2ccccn2)CCCCC1    < 5.00
C[C@@](Cc1c[nH]c2ccccc12)(NC(=O)c1ccccc1-n1cccc1)C(=O)NCC1(c2ccccn2)CCCCC1    < 5.00

Please examine the following record next.
Lookup: # input molecule: C[C@@](Cc1c[nH]c2ccccc12)(NC(=O)Cc1ccccc1F)C(=O)NCC1(c2ccccn2)CCCCC1 ; wanted: its pIC50
Found: 5.81

* * *

metric: melting point

Lookup: # input compound: C[C@@](Cc1c[nH]c2ccccc12)(NCc1ccc([N+](=O)[O-])cc1)C(=O)NCC1(c2ccccn2)CCCCC1 ; wanted: its melting point
Found: 58 to 60 °C

Lookup: # input compound: C[C@@](Cc1c[nH]c2ccccc12)(Nc1cncnc1)C(=O)NCC1(c2ccccn2)CCCCC1 ; wanted: its melting point
Found: 95 to 98 °C

Lookup: # input compound: COc1ccc(C2(CNC(=O)[C@](C)(Cc3c[nH]c4ccccc34)Nc3nc(-c4ccc([N+](=O)[O-])cc4)cs3)CCCCC2)nc1 ; wanted: its melting point
Found: 110 to 114 °C

Lookup: # input compound: C[C@@](Cc1c[nH]c2ccccc12)(Nc1nc2ccccc2o1)C(=O)NCC1(c2ccccn2)CCCCC1 ; wanted: its melting point
Found: 198 to 200 °C

Lookup: # input compound: COc1ccc(C2(CNC(=O)[C@](C)(Cc3c[nH]c4ccccc34)Nc3nc(-c4ccc([N+](=O)[O-])cc4)co3)CCCCC2)nc1 ; wanted: its melting point
Found: 100 to 105 °C

Lookup: # input compound: COc1ccc(C2(CNC(=O)[C@](C)(Cc3c[nH]c4ccccc34)Nc3nc(-c4ccccc4)co3)CCCCC2)nc1 ; wanted: its melting point
Found: 85 to 90 °C

Lookup: # input compound: Cc1cccc(N[C@@](C)(Cc2c[nH]c3ccccc23)C(=O)NCC2(c3ccccn3)CCCCC2)c1 ; wanted: its melting point
Found: 70 to 75 °C

* * *

# measurement.target: human GRP receptor (BB2) (Homo sapiens)
# Construct: expressed in transfected cells; membranes prepared from the cells
# test.details: BB2 binding assay ([125I][Tyr4]bombesin displacement, CHO-K1 membranes)
# experimental.conditions: Table 1, human GRP receptor binding affinity; Ki from IC50 by Cheng-Prusoff; read-out: GRP Kj
pKi: −log10 of the molar value.
metric: pKi

COc1ccc(C2(CNC(=O)[C@](C)(Cc3c[nH]c4ccccc34)Nc3nc(-c4ccc(C#N)cc4)co3)CCCCC2)nc1    5.86

(I) CCc1coc(N[C@@](C)(Cc2c[nH]c3ccccc23)C(=O)NCC2(c3ccc(OC)cn3)CCCCC2)n1
(II) COc1ccc(C2(CNC(=O)[C@](C)(Cc3ccccc3)Nc3nc(-c4ccc([N+](=O)[O-])cc4)co3)CCCCC2)nc1
Lookup: Lower pKi: I or II ? The response must carry the label of the picked entry.
Found: II
(II: 5.55, I: 5.75)

The values you see were collected from patent US20020169101A1.
